Target or test system: T1, human CD24 (human, UniProt P25063 27-59, heavily glycosylated, GPI-anchored (as described in the background))
T1 construct: whole, on cells; Target of all cell-based FACS assays; also called hCD24; Cluster of differentiation 24
T1 chain (looked up): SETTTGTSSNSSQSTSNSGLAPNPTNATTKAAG
Measurement protocol: FACS, 293F-hCD24 cells
Measured parameter: FACS MFI
Give the figure only, with no unit attached.

81A1F8 (antibody, V domains shown, mouse monoclonal antibody) VH: EVQLQQSGPELVKPGASVKISCKATGYLFTGYYMNWVKQSPEKSLEWIGEINPNTGDTNNNQKFKAKATMTVDRSSSTAYMQLKRLTSEDSAVYYCVRRDYGTSLDYWGQGTTLTVSS VL: DVQITQSPSYLAASPGETITINCRASKSINKYLAWYQEKPGKTNKLLIHSGSTLQSGIPSRFSGSRSGTDFTLTISNLEPEDFAMYYCQQHNEYPITFGAGTKLELK :: 10300
56A7E3 (antibody, V domains shown, mouse monoclonal antibody) VH: EVQLQQSGPELVKPGASVKIPCKASGYTFTAYNMDWVKQSHGMSLEWIGDINPINGGTIYNQNFEGKATLTVDKSSSTAYLELRSLTSEDTAVYYCARRGSYYYGSSHYALDFWGQGTSVSVSS VL: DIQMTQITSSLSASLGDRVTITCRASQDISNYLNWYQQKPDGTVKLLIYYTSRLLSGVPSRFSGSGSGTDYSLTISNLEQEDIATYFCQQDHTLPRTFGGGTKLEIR :: 26400

Moving on to another binder below.
For the binder shown here, 100F2E3 (antibody, V domains shown, mouse monoclonal antibody) VH: QVQLQQPGAELVRPGSSVKLSCKTSDYTFTSYWMDWVKQRPGQGLEWIGNIYPSDSKTHSNQKFRDKATLTVDKSSSTAYMQLNSLTSEDSAVYYCARRGGYYGYAMDYWGQGTSVTVSS VL: DIVMTQSPSSLSVSAGEKVTMSCKSSQSLLNSGNQDNYLAWYQQKPGQPPKLLIYGASIRESGVPDRFTGSGSGTDFTLTISSVQAEDLAVYYCQNDHSYPYTFGGGTKLEIK , give the reported FACS MFI.
44100
